Biological target: 17-beta-hydroxysteroid dehydrogenase type 1 (Homo sapiens) (UniProt P14061)
Sequence (whole entry): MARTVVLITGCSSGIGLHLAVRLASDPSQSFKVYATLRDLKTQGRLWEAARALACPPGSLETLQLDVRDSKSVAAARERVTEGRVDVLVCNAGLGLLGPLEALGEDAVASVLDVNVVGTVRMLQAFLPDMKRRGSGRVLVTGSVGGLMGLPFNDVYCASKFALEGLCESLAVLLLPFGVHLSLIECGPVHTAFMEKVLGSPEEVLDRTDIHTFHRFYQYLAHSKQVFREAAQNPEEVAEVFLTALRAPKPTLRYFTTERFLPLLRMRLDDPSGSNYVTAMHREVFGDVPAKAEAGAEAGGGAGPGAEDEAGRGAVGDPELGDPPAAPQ
Experiment: Tested by protection experiments to demonstrate the inactivation of estradiol dehydrogenase and the kinetic parameter Kapp was reported at a concentration of 20 uM
Some molecules, each annotated with its measured K app.
EXPERIMENTAL_READOUT: K app (min⁻¹)

- C[C@]12CC[C@@H]3c4ccc(O)cc4CC[C@H]3[C@@H]1CC[C@H]2O: 0.01
- C[C@]12CC[C@@H]3c4ccc(O)cc4CC[C@H]3[C@@H]1CC[C@@H]2O.NC(=O)C1=CN([C@@H]2O[C@H](COP(=O)(O)OP(=O)(O)OC[C@H]3O[C@@H](n4cnc5c(N)ncnc54)[C@H](O)[C@@H]3O)[C@@H](O)[C@H]2O)C=CC1: 0.013
- C[C@@]1(C(O)C#CC(F)(F)F)CCC2c3ccc(O)cc3CCC2C1 (single isomer, unassigned): 0.021
